# Species: Mus musculus
# assaySummary: Inhibition of nAChR-mediated twitch response in mouse hemidiaphragm
measure: IC90
Be sure to follow the number with its unit.

The cases that follow already have their IC90 on record.
1. CC(=O)O[C@H]1[C@@H]([N+]2(C)CCOCC2)C[C@H]2[C@@H]3CC[C@H]4C[C@@H]([N+](C)(C)c5ccccc5)CC[C@]4(C)[C@H]3CC[C@@]21C	18.2 µM
2. CC(=O)O[C@H]1CC[C@@]2(C)[C@@H](CC[C@@H]3[C@@H]2CC[C@@]2(C)[C@H]3C[C@H]([N+]3(C)CCOCC3)[C@@H]2OC(C)=O)C1	29.4 µM
3. CC(=O)O[C@H]1[C@@H]([N+]2(C)CCOCC2)C[C@H]2[C@@H]3CC[C@H]4C[C@@H]([N+](C)(C)C)CC[C@]4(C)[C@H]3CC[C@@]21C	25 µM

Request: Tell me IC90 reported for "CC(=O)O[C@H]1[C@@H]([N+]2(C)CCOCC2)C[C@H]2[C@@H]3CC[C@H]4C[C@@H](N5CC[N+](C)(C)CC5)CC[C@]4(C)[C@H]3CC[C@@]21C"
Response: 18.6 µM

Request: Tell me IC90 reported for C=CC[N+]1([C@H]2C[C@H]3[C@@H]4CC[C@H]5C[C@H](O)[C@@H](N6CCOCC6)C[C@]5(C)[C@H]4CC[C@]3(C)[C@H]2OC(C)=O)CCCC1 [ROCURONIUM BROMIDE]
Response: 3.53 µM

* * *

# Species on record: Mus musculus
# assaySummary: Inhibition of nAChR-mediated twitch response in mouse hemidiaphragm
measure: log10 IC90 (log10 of the value in µM)
Recall that a logarithmic scale is used here: each number is log10 of IC90 in µM.

The cases that follow already have their log10 IC90 on record.
1) CC(=O)O[C@H]1[C@@H]([N+]2(C)CCOCC2)C[C@H]2[C@@H]3CC[C@H]4C[C@@H]([N+]5(C)CCCC5)CC[C@]4(C)[C@H]3CC[C@@]21C	1.20
2) CC(=O)O[C@H]1C[C@@H]2CC[C@@H]3[C@H](CC[C@@]4(C)[C@H]3C[C@H]([N+]3(C)CCCCC3)[C@@H]4OC(C)=O)[C@@]2(C)C[C@@H]1N1CCCCC1 [VECURONIUM BROMIDE]	-0.36
3) CC(=O)O[C@H]1[C@@H]([N+]2(C)CCOCC2)C[C@H]2[C@@H]3CC[C@H]4C[C@@H]([N+]5(C)CCOCC5)CC[C@]4(C)[C@H]3CC[C@@]21C	1.71

Request: Tell me log10 IC90 reported for "CC(=O)O[C@H]1[C@@H]([N+]2(C)CCOCC2)C[C@H]2[C@@H]3CC[C@H]4C[C@@H]([N+](C)(C)Cc5ccccc5)CC[C@]4(C)[C@H]3CC[C@@]21C"
Response: 0.80

Request: Tell me log10 IC90 reported for "CC(=O)O[C@H]1[C@@H]([N+]2(C)CCOCC2)C[C@H]2[C@@H]3CC[C@H]4C[C@@H]([N+]5(C)CCCCC5)CC[C@]4(C)[C@H]3CC[C@@]21C"
Response: 0.74
